From: paper PMC5540273

# Test system: EPHA6
# experimental_setup: concentration: 1 μM, replicates: in singlicate; n = 1;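 note: KINOMEscan kinase panel screen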
readout: %Inh (%)
Numbers only, in %.

O=C(Nc1n[nH]c2nc(-c3nccs3)c(Br)cc12)C1CCCC1 [SB-742609]
20
Cl.Oc1ccc(-c2nc(-c3ccccc3)[nH]c2-c2ccncc2)cc1 [SB-428218]
35

Prompt: Requested read-out: %Inh. Entry: Cc1cccc(-c2cc(Nc3ccncc3)c3ccccc3n2)n1 [GSK223675]
Response: 0

###

# System: TEC
# experimental_setup: concentration: 1 μM, replicates: in singlicate; n = 1
readout: %Inh (%)
One number for each entry, in %.

I need %Inh for every entry listed below, if you could help.
1. CN(C)CCN(C)C(=O)c1cc(-c2ccncc2)c(-c2ccc(Cl)c(O)c2)o1.Cl.Cl
2. Cl.O=C(Nc1cccc(-c2nn3ncccc3c2-c2ccnc(Nc3cccnc3)n2)c1)c1c(F)cccc1F
3. CC(=O)Nc1nc2cnc(Nc3cc(NC(=O)c4cccc(CCC#N)c4)ccc3C)nc2s1
4. O=C(Nc1ccccc1)Nc1cccc(Oc2ccc3nccn3n2)c1
5. O=C(Nc1n[nH]c2cc(-c3cccc(F)c3F)ccc12)C1CC1

Response:
1: 6; 2: 13; 3: 10; 4: 0; 5: 4

Prompt: Requested read-out: %Inh. Entry: O=C(Nc1n[nH]c2nc(-c3nccs3)c(Br)cc12)C1CC1
Response: 14
